Target: UniProt:Q07343
Sequence (Q07343 whole entry): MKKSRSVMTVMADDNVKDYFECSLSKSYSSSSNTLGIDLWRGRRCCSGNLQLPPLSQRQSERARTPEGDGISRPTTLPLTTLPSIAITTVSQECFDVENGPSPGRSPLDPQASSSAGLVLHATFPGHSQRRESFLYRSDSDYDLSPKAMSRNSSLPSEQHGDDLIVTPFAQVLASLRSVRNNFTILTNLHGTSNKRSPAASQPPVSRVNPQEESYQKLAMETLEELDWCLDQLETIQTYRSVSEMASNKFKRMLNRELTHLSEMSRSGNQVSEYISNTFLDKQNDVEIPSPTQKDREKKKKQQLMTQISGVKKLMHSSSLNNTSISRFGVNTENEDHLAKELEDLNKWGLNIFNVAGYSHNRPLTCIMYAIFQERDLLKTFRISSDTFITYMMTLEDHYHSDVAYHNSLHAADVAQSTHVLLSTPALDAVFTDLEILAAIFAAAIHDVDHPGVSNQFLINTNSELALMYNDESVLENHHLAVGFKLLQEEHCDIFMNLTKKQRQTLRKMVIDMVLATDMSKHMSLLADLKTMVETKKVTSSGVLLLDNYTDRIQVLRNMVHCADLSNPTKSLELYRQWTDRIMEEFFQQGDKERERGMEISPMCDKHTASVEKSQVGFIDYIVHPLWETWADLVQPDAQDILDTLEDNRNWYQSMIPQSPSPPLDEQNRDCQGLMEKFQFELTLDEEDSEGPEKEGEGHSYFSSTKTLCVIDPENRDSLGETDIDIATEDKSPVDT
Experiment: Inhibition of PDE4B (unknown origin) using FAM-cAMP as substrate at 10 uM after 60 min by fluorescence polarization assay
Label T when inhibition >= 10%; otherwise F.

{"querySmiles": "CCCCn1c(=O)c2ccccc2n(CC(=O)c2ccccc2)c1=O", "cat": "T"}
{"querySmiles": "CCCCn1c(=O)c2ccccc2n(Cc2ccccc2)c1=O", "cat": "T"}
{"querySmiles": "CCCCn1c(=O)c2ccccc2n(CC(=O)c2ccc(Cl)cc2)c1=O", "cat": "F"}
{"querySmiles": "CCCCn1c(=O)c2ccccc2n(CCCN2CCN(c3ccccc3)CC2)c1=O", "cat": "T"}
{"querySmiles": "CCCCn1c(=O)c2ccccc2n(CCCN2CCOCC2)c1=O", "cat": "T"}

Could you tell me if the measured inhibition of CCCCn1c(=O)c2ccccc2n(CCN2CCOCC2)c1=O reaches 10% or more?
T

Could you tell me if the measured inhibition of CCCCn1c(=O)c2ccccc2n(CCCN2CCCCC2)c1=O reaches 10% or more?
T

Could you tell me if the measured inhibition of CCCCn1c(=O)c2ccccc2n(CCN2CCN(c3ccccc3)CC2)c1=O reaches 10% or more?
T

Could you tell me if the measured inhibition of CCCCn1c(=O)c2ccccc2n(CCCN(CC)CC)c1=O reaches 10% or more?
F

Could you tell me if the measured inhibition of CCCCn1c(=O)c2ccccc2n(CCN(CC)CC)c1=O reaches 10% or more?
F

Could you tell me if the measured inhibition of CCCCn1c(=O)c2ccccc2n(CCN2CCCCC2)c1=O reaches 10% or more?
T
